Data provenance is ChEMBL document CHEMBL1697781.

# Test system: Hepatotoxicity
# procedureSummary: FDA HLAED, lactate dehydrogenase (LDH) increase
# cond: human
readoutLabel: LDH Increase - Index Value
Respond numerically, and do not add a unit to the figure.

Answered examples (2):
compound | LDH Increase - Index Value
CO/N=C(\C(=O)N[C@@H]1C(=O)N2C(C(=O)O)=C(COC(C)=O)CS[C@H]12)c1csc(N)n1 | 0
Nc1cc(Cl)c(N=C2NCCN2)c(Cl)c1 | 0

Please examine the following record next.
Query block: Give the measured LDH Increase - Index Value of CC(C)c1c(C(=O)Nc2ccccc2)c(-c2ccccc2)c(-c2ccc(F)cc2)n1CC[C@@H](O)C[C@@H](O)CC(=O)O .
Result block: 2.5

###

# System: Hepatotoxicity
# procedureSummary: FDA HLAED, lactate dehydrogenase (LDH) increase
# cond: human
Reported LDH Increase - Index Value values are given for each entry in this list.
Provide a numeric answer; units are not to be included.

compound | measurementTarget | resultNumber
CC1COc2c(N3CCN(C)CC3)c(F)cc3c(=O)c(C(=O)O)cn1c23 (stereo not given) | Hepatotoxicity | 1.2
Nc1ccn(C[C@@H](CO)OCP(=O)(O)O)c(=O)n1.O.O | Hepatotoxicity | 46.1

Query block: LDH Increase - Index Value lookup needed for CC(C)(C)NC(=O)[C@@H]1CN(Cc2cccnc2)CCN1C[C@@H](O)C[C@@H](Cc1ccccc1)C(=O)N[C@H]1c2ccccc2C[C@H]1O.O , thanks.
Result block: 44.5

Query block: Try this compound too: CC(N)C12CC3CC(CC(C3)C1)C2 (stereo not given)
Result block: 0

Query block: Can you handle CO/N=C(\C(=O)N[C@@H]1C(=O)N2C(C(=O)OC(C)OC(C)=O)=C(COC(N)=O)CS[C@H]12)c1ccco1 (stereo not given in full) next?
Result block: 0

###

# Tested on: Hepatotoxicity
# procedureSummary: FDA HLAED, gamma-glutamyl transferase (GGT) increase
# cond: human
readoutLabel: GGT Increase - Index Value
Give a plain numeric answer without units written out.

Example entries begin here.
compound | measurementTarget | GGT Increase - Index Value
CC1(C)NC(=O)N(c2ccc([N+](=O)[O-])c(C(F)(F)F)c2)C1=O [NILUTAMIDE] | Hepatotoxicity | 0
CN1CCN2c3ncccc3Cc3ccccc3C2C1 (stereo not drawn) [MIRTAZAPINE] | Hepatotoxicity | 3.6
FC(F)OC(F)C(F)(F)F (stereo not drawn) | Hepatotoxicity | 0.5
Clc1cccc(Cl)c1N=C1NCCN1 [CLONIDINE] | Hepatotoxicity | 9.5
CC(CN(C)C)CN1c2ccccc2CCc2ccccc21 (stereo not drawn) [TRIMIPRAMINE] | Hepatotoxicity | 0
CCC1=C(C)CN(C(=O)NCCc2ccc(S(=O)(=O)NC(=O)N[C@H]3CC[C@H](C)CC3)cc2)C1=O [GLIMEPIRIDE] | Hepatotoxicity | 1.2

Query block: I'm curious: which GGT Increase - Index Value was measured for CC[C@H](C)C(=O)O[C@H]1C[C@H](O)C=C2C=C[C@H](C)[C@H](CC[C@@H](O)C[C@@H](O)CC(=O)O)[C@H]21 [PRAVASTATIN] tested on Hepatotoxicity?
Result block: 5.3

Query block: Next record, please: C=C1CC[C@@]2(O)[C@H]3Cc4ccc(O)c5c4[C@@]2(CCN3CC2CC2)[C@H]1O5
Result block: 0

###

# Tested on: Hepatotoxicity
# procedureSummary: FDA HLAED, gamma-glutamyl transferase (GGT) increase
# cond: human
readoutLabel: GGT Increase - Index Value
Answer as a number with no unit attached.

Please review the following examples before continuing.
molecule | GGT Increase - Index Value
CC(=O)O[C@H]1C[C@@H]2CC[C@@H]3[C@H](CC[C@@]4(C)[C@H]3C[C@H](N3CC[N+](C)(C)CC3)[C@@H]4OC(C)=O)[C@@]2(C)C[C@@H]1N1CC[N+](C)(C)CC1.[Br-].[Br-] [PIPECURONIUM BROMIDE] | 0
C[C@H]1C[C@H]2[C@@H]3CCC4=CC(=O)C=C[C@]4(C)[C@@]3(F)[C@@H](O)C[C@]2(C)[C@@]1(O)C(=O)CCl | 0
CO/N=C(\C(=O)N[C@@H]1C(=O)N2C(C(=O)O)=C(COC(N)=O)CS[C@H]12)c1ccco1 | 0

Query block: Recorded GGT Increase - Index Value for CCOC(=O)N1CCC(=C2c3ccc(Cl)cc3CCc3cccnc32)CC1 , please?
Result block: 0.5

Query block: CCOC(=O)/C=C(C)/C=C/C=C(C)/C=C/c1c(C)cc(OC)c(C)c1C [ETRETINATE] , same question.
Result block: 0.6

Query block: Likewise for CO/N=C(\C(=O)N[C@@H]1C(=O)N2C(C(=O)O)=CCS[C@H]12)c1csc(N)n1 ?
Result block: 0

Query block: Try this molecule next: O=C(O)P(=O)(O)O
Result block: 36.3

Query block: Now this one: COc1cccc2c1C(=O)c1c(O)c3c(c(O)c1C2=O)C[C@@](O)(C(C)=O)C[C@@H]3O[C@H]1C[C@H](N)[C@H](O)[C@H](C)O1
Result block: 0

###

Collected SGPT Increase - Index Value values appear next to each entry.
# Tested on: Hepatotoxicity
# procedureSummary: FDA HLAED, serum glutamic pyruvic transaminase (SGPT) increase
# cond: human
Format: numeric value only, no unit, no commentary.

// below: answered molecules
molecule | measurementTarget | SGPT Increase - Index Value
CN1CCN(C2=Nc3ccccc3Oc3ccc(Cl)cc32)CC1 | Hepatotoxicity | 9.9
Cc1cc(CC(=O)O)n(C)c1C(=O)c1ccc(Cl)cc1 [ZOMEPIRAC] | Hepatotoxicity | 0.7
N=C(N)c1ccc(OCCCCCOc2ccc(C(=N)N)cc2)cc1 | Hepatotoxicity | 5.7
CCCCCCC(C)(C)c1cc(O)c2c(c1)OC(C)(C)C1CCC(=O)CC21 (stereo not drawn) | Hepatotoxicity | 0
Clc1ccc2c(c1)C(N1CCNCC1)=Nc1ccccc1O2 | Hepatotoxicity | 0.7
CCC(=O)O[C@H]1CC[C@H]2[C@@H]3CCC4=CC(=O)CC[C@]4(C)[C@H]3CC[C@]12C [TESTOSTERONE PROPIONATE] | Hepatotoxicity | 7.2
C=C1/C(=C\C=C2/CCC[C@]3(C)[C@@H]([C@H](C)/C=C/[C@@H](O)C4CC4)CC[C@@H]23)C[C@@H](O)C[C@@H]1O | Hepatotoxicity | 0
C=CC1=C(C(=O)O)N2C(=O)[C@@H](NC(=O)/C(=N\OCC(=O)O)c3csc(N)n3)[C@H]2SC1 | Hepatotoxicity | 0.4

Query block: Given CC(C)COCC(CN(Cc1ccccc1)c1ccccc1)N1CCCC1 (stereo not drawn) , state its recorded SGPT Increase - Index Value.
Result block: 0

Query block: Also CC(C)(C)NCC(O)c1ccc(O)c(CO)c1 (stereo not drawn) , if possible.
Result block: 0

###

# System: Hepatotoxicity
# procedureSummary: FDA HLAED, lactate dehydrogenase (LDH) increase
# cond: human
readoutLabel: LDH Increase - Index Value
Form field (numeric): enter value without unit.

chemSmiles | resultNumber
C[C@]12CC[C@@H]3c4ccc(OC(=O)N(CCCl)CCCl)cc4CC[C@H]3[C@@H]1CC[C@@H]2O | 0

Query block: What LDH Increase - Index Value value was documented for this compound, Cc1cn([C@H]2C[C@H](N=[N+]=[N-])[C@@H](CO)O2)c(=O)[nH]c1=O ?
Result block: 5.7

Query block: O=S(=O)([O-])CCS.[Na+] , same question.
Result block: 5

Query block: Now give it for CCN1CCN(C(=O)N[C@@H](C(=O)N[C@@H]2C(=O)N3[C@@H]2SC(C)(C)[C@@H]3C(=O)O)c2ccccc2)C(=O)C1=O too.
Result block: 0

###

Overview of recorded Composite Activity - Marginal for various compounds
# Test system: Hepatotoxicity
# procedureSummary: FDA HLAED, liver enzyme composite activity
# cond: human
The reply should be a number, written without any unit.

# count of solved cases: 2
compound | measurementTarget | resultNumber
FC(F)OC(F)(F)C(F)Cl (stereo not given) | Hepatotoxicity | 0
O=C(O)CCCCCCCC(=O)O | Hepatotoxicity | 0

Query block: Requested read-out Composite Activity - Marginal, target or system Hepatotoxicity, entry NCCCCCC(=O)O
Result block: 0

Query block: Same lookup for Clc1ccc2c(c1)C(N1CCNCC1)=Nc1ccccc1O2 , please.
Result block: 0

Query block: Field entry: CCCCc1nc(Cl)c(CO)n1Cc1ccc(-c2ccccc2-c2nn[nH]n2)cc1
Result block: 0

Query block: Now consider Nc1nnc(-c2cccc(Cl)c2Cl)c(N)n1 .
Result block: 1

Query block: Now the compound CN1CCCC(n2nc(Cc3ccc(Cl)cc3)c3ccccc3c2=O)CC1 (stereo not given)
Result block: 0

Query block: // repeat for CC(C)[C@H](N)C(=O)OCCOCn1cnc2c(=O)[nH]c(N)nc21 and report
Result block: 0

Query block: Same lookup for C[C@H]1C[C@H]2[C@@H]3CCC4=CC(=O)C=C[C@]4(C)[C@@]3(F)[C@@H](O)C[C@]2(C)[C@@]1(O)C(=O)CO , please.
Result block: 0

Query block: Likewise for CNC(=C[N+](=O)[O-])NCCSCc1ccc(CN(C)C)o1 ?
Result block: 0
